System: MS2 coat protein
Assay: apparent KD of MS2 coat protein; designed switch direction (-1 OFF switch, 1 ON switch): -1; higher = weaker reporter binding
Details: input ligand: FMN 200 uM
Please mark 1 if the recorded apparent KD of MS2 coat protein is equal to or greater than 40 nM, and 0 if it falls below.

q: Hi, just wondering whether GUGAUCUAUCAUGGGAUAAACAUGAGGAUCACCCAUGUAGACAAGUUUUUUGCUCGUCUUAUAAUAAGAUAGAUCAC [Antenna 1 - Jieux - Sensor, turn-off variant 1] (Eterna round: R97, puzzle: Sensor, turn-off variant 1) shows apparent KD of MS2 coat protein of 40 nM or higher.
a: 0

q: Threshold query (apparent KD of MS2 coat protein >= 40 nM) on UCAUGGAAGCAGGAUAUGCUUGUUUAAUUGUUUGCAGAAGGGCUAACAUGAGGAUCACCCAUGUAAGAGGUCUA [JR_E6_Sub063] (Eterna round: R96, puzzle: Exclusion 6)
a: 1

q: Say whether AGACACUUAGGAUAUCAGGCAAUGCACAUGAGGAUCACCCAUGUGGUCUUGGUCCGGGACUGAGAAGGAAGAGUCC [EX5 B.10] (Eterna round: R97, puzzle: Exclusion 5) shows apparent KD of MS2 coat protein of 40 nM or more.
a: 0

q: Is it the case that AGUCAGGCGGUAGGAUAUCCAAACCGAGUGACCCUCUCAUAACAUGAGGAUCACCCAUGUCGGUGGGAGAAGGGCCGUACGGCG [Atra] (Eterna round: R96, puzzle: Exclusion NG 2) has apparent KD of MS2 coat protein reaching or exceeding 40 nM?
a: 1

q: Exam item: decide whether the reported apparent KD of MS2 coat protein for UUGUUGUAUGUAGGAUAUGCAUAUUAUUGUUAUGCAGAAGGACAUGAGGAUCACCCAUGUAUAUUAUUAUUAUAUGUUAUAUAU [Title] (Eterna round: R96, puzzle: Exclusion NG 1) is at least 40 nM.
a: 0

----------
Test system: MS2 coat protein
Experiment: apparent KD of MS2 coat protein; designed switch direction (-1 OFF switch, 1 ON switch): -1; higher = weaker reporter binding
Settings: input ligand: FMN 200 uM
Hi there, I'd appreciate the recorded apparent KD of MS2 coat protein for every entry that follows.

Given item CUGACGGCAGGAUAUACAUGAGGAUCACCCAUGUAAAUUUUUCGUUUAACUUGAAUGUGUAGAAGGGCCCAACC [Ex3 #79] (Eterna round: R97, puzzle: Exclusion 3) , the value recorded as its apparent KD of MS2 coat protein is 19.6 nM

// apparent KD of MS2 coat protein value for ACAUGAGGAUCACCCAUGUCCGGCUGGUCCGUUUCGGCUGUCGAGGAUAUAGUUCGGUGUUCGCGCUAGAAGGCGGGAGCUGGC [Aenatbe mod 60] (Eterna round: R96, puzzle: Exclusion NG 3) : 206 nM

Briefly, apparent KD of MS2 coat protein measured for CAGUACUGAGGAUAUACAUGAGGAUCACCCAUGUGUUCCAGCUAGGAAUCUAGCAAAAGUAGAAGGCAGUACUG [salish99_ex3_r3_094x] (Eterna round: R96, puzzle: Exclusion 3) : 727 nM

Sure, the documented apparent KD of MS2 coat protein for UUAACAUGCUGGUGAUCAUACAUGAGGAUCACCCAUGUAACAAGCUUUUUGUUCGUCUUAUAAUUUAAGAUCACCAG [Stov1/7-B1] (Eterna round: R97, puzzle: Sensor, turn-off variant 1) is 21.6 nM

Memo: UACAAUGCUUUUGUAAGGUACAUGAGGAUCACCCAUGUCUCGCAAAGGCUUGAUUAUCACGUACGCGCUUGUCUUGU [Eternabot (L1) Solution 17] (Eterna round: R97, puzzle: Sensor, turn-off variant 1) , reported apparent KD of MS2 coat protein: 14.3 nM

----------
Test system: MS2 coat protein
Assay: apparent KD of MS2 coat protein, switch OFF state (with FMN for OFF switches, without FMN for ON switches); designed switch direction (-1 OFF switch, 1 ON switch): -1; higher = weaker reporter binding
Settings: FMN input: 0 or 200 uM; Eterna round: R93 (includes R88 designs)
measured attribute: apparent KD of MS2 coat protein (µM)
Record the value in µM, omitting the unit from your answer.

Reported apparent KD of MS2 coat protein for AACAAACAUGAGGAUCACCCAUGUCAGGAUAUGCAAACAACAAACAACAAACAACAAAGCAGAAGGGACGACAA [63%, Olong, 3] was 0.0375

Input AAAUACUAAGGAUAUACAUGAGGAUCACCCAUGUACAAACCCGUGGAACGGAUCCUUAGUAGAAGGUGGACGAA [Onquerar] . Output apparent KD of MS2 coat protein: 0.0139

The sequence identified as AAAAAGUGAGGAUAUUCGGAUAGGAAAACGAAAACCUAUCCGAAGAAGGCACAUGAGGAUCACCCAUGUAAAAA [67% Ecls-II - Early G segment 1] registered its apparent KD of MS2 coat protein at 0.0376

apparent KD of MS2 coat protein in this record for ACAAACCAAGGAUAUACAUGAGGAUCACCCAUGUGUUCGGCGUUUAGCAUGGGCAGCAGUAGAAGGUGGAGAAA [Dilareat] : 0.0931

Per the record, AAGAAGUCAGGAUAUCGAAGACAGACGAAAAGUCUGUCAAACGAGAAGGGACAUGAGGAUCACCCAUGUAAAGA [Mat - Exaclusion 4 - Eli mod - D73] has apparent KD of MS2 coat protein of 0.061

Value of apparent KD of MS2 coat protein reported for the sequence AUAAAGUAAGGAUAUGCGAAUAAAUAAGUAGACGAAUGAAAGCAGAAGGUACAUGAGGAUCACCCAUGUAAGAA [Ex 4 Tesla 2] is 0.019

Input AACUGACAUGAGGAUCACCCAUGUCAGGAUAUGACUUGACGAAAAAAAACACGUCAUGUCAGAAGGGACAUGGA [Design 89: Sub-opt Z] . Output apparent KD of MS2 coat protein: 0.0373

Value of measured apparent KD of MS2 coat protein for the entry GGCUAGUCAGGAUAUACGAACAUGUCAAAAGACGUGAAGGGACAUGAGGAUCACCCAUGUAGAAGGGACUAGCG [salish99-ex2-13] : 0.132

The sequence listed as AAAAAAAGAGGAUAUACGAACAUGUCAAAAGACGUGAAGGGACAUGAGGAUCACCCAUGUAGAAGGCUUAAAAA [JL Part Open 28] shows apparent KD of MS2 coat protein equal to 0.0263

Lab book: apparent KD of MS2 coat protein of UCGAUGUCAGGAUAUGUGUAAAGAAUAAAACAAAUAACAACACAGAAGGGACAUGAGGAUCACCCAUGUUACGA [May 42] noted as 0.0862

So, AAAUUGUCAGGAUAUCUUAGAAUAGUCAAAGACUAGAGCUAAGAGAAGGGACAUGAGGAUCACCCAUGUAAAAC [May 91] ? Its apparent KD of MS2 coat protein was 0.0566

What the record says about AAGGGACAUGAGGAUCACCCAUGUCAGGAUAUGCUAUGGAAAAAUAAAAUAAAACAUAGCAGAAGGGAUAAAAA [Mat - Exclusion 1 - Eli mod - D32] : apparent KD of MS2 coat protein is 0.0511

Memo: AAAAAGAUAGGAUAUACGUACAUGUCAAAAGACGUGAAGGGACAUGAGGAUCACCCAUGUAGAAGGAUUAAAAA [JL Wide Open 40] , reported apparent KD of MS2 coat protein: 0.0201

----------
Tested on: K4 kissing-loop RNA reporter;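 also: bound reporter read as fluorescence of individual clusters on recovered sequencing chips by microscopy, with normalized cluster intensities fitted with a binding model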
Assay: apparent KD of K4 kissing-loop reporter; higher = weaker reporter binding
Conditions: Eterna round: R107; input ligand: theophylline 20 uM
Exercise: state measured apparent KD of K4 kissing-loop reporter for each of the sequences provided.
The reply should consist of the numeric value with the unit placed after it.

apparent KD of K4 kissing-loop reporter for UGACUGGACUGAAGGAGCGCUAAAACUCCUAGUGAUGUUAGGAAAACGAGACAAAGUCUCGAGCAGGUAGGUCGCAGUCUAGUCU [ArgBS 21 #SwitchBubble #StaticStem] is 148 nM

Lab book: apparent KD of K4 kissing-loop reporter of UAGAGAUCGAGAAGGAGCGAGAAAGCUAGUACAUAUGUACUAGCAAAGCAGUGAUGUUGCACUCAGGUAGGUCGCUCGAUCUCAU [AK1.1 SS Arginine B] noted as 432 nM

The sequence UGAUACCAGACUGAUACCAGCUAGUGAUGUUAGCUAAAAUCAGGGUCAAAGACCCUGUCUGGCCCUUGGCAGCAGUCUGGUAUCU [TheoBX 10 #SwitchBubble #StaticStem] showed apparent KD of K4 kissing-loop reporter equal to 191 nM

The reported value for ACACUAUCGUCAUAGACGGUAGUGAACACACAGGAUAUGAGUGAUGUUAGAAGGGUGUAAGACUGUAUCGAAUAGAUACAGUCAA [FmnA 7 #K4BetweenAptamer #OpenEnded] in terms of apparent KD of K4 kissing-loop reporter is 192 nM

The sequence listed as AAUUGAGUGACGGCCGCCACUAGAGUGAUUUUUUUGUUUGAGUGAUGUUUUGAUGUUUGAUUUUGUAGGACCGGGUUGAGUGAUG [qqxzmullin] shows apparent KD of K4 kissing-loop reporter equal to 528 nM

Memo: CCUAUCUCAUACGAUACCAGUCAAUUAAAUUUUAUAAAUGCCAUCACCGAGUGAUGUUCGGACCCUUGGCAGCGUAUGGGAUAGG [Ex Theophylline B K4 2] , reported apparent KD of K4 kissing-loop reporter: 310 nM

Lab book: apparent KD of K4 kissing-loop reporter of AACGGCCAGUCGGCCGCCACUCAAAGCAGUGAUGUUGCUAACUUUCUAAAAGAGUGAUGUUCUUAGAGGACCGGGACUAAUGUAA [Exclusion Tryptophan B GF 2] noted as 143 nM

The value of apparent KD of K4 kissing-loop reporter measured for the sequence AGCAGUCCAGGAUCGAAAGAUCCUGAGGUCCGAGGACCGGUACGGCCGCCACUCGGAGUGAUGUUCCGAAGACUGCAAAAUAAAA [#SwitchBubble 5] turned out to be 135 nM

The recorded apparent KD of K4 kissing-loop reporter for UUUUACGAGUGAUGUUCGUAAUGUAAUAGUUAGGAUAUCGUUUUUUCGAGAAGGAACUUCGAAGUGAUACGAAAGUAUCGCUUCG [FMN A 9] is 154 nM

Item: UGAGUGAUGUUCAAGGACUAGAUCUAAAUAAAGGAUAUAGCAUACGCUAGAAGGUUAAAAUUUCUGGAUCCCAGUUUAAACCUUU [theeternabot_sameState_KL_FMN_A_49] | apparent KD of K4 kissing-loop reporter: 222 nM

Summary for this sequence, AUUGAUAUAUAUAUUUGAUUUUUAUGUGAUACCAGACAAGGCAUAGUCCCUUGGCAGCACUUUAUAUUUACGAGUGAUGUUCGUA [JR_SSTheophyA_Sub025] : apparent KD of K4 kissing-loop reporter is 187 nM

response.value for GGAGUUACCUGGGAUACCAGCCGGAGGCCCAGAGCUCGGAGUGAUGUUCUGGGAUGUUUCGGCCCUUGGCAGCUCUGGGUCUCCG [#2 Exclusion - Theophylline B Attempt #5 (HarryS)] (field: apparent KD of K4 kissing-loop reporter) = 433 nM

Briefly, apparent KD of K4 kissing-loop reporter measured for GACUCAUGUAGAAGGAGCGUCAGAAGCUACAGACAUGAGUGAUGUUCAUGUUAGUUGAUCUGACAGGUAGGUCGCUACAGCAGGA [KL-SSArg B14 #analogue] : 141 nM

Note to self: apparent KD of K4 kissing-loop reporter recorded for UGAUAGGACAGAAGGAGCGGAAGCUAGUCAAAGACUAGCACGUUAAUAACAGGAGUGAUGUUCCAGGUAGGUCGCUGUCCUAUCU [ArgBX 24 #SwitchBubble #StaticStem] was 118 nM

Kindly note the recorded apparent KD of K4 kissing-loop reporter for GCCGUAGAUGGAAGGAGCGUGUCAAAGUGAUGUUUUGAUUAACUCCCUAAGGGAUAGAUGACACAGGUAGGUCGCCAUCUACGGC , which is 102 nM

// AGUAAUGAGUGAUGUUCAAAUAGUAAGGAUACCAGUAAUUCAAAAUGCCCUUGGCAGCUUAACGCUACCAAUAGAUAAAUAAUGG [Theophilline A V2 (+2A)] : apparent KD of K4 kissing-loop reporter value = 172 nM

apparent KD of K4 kissing-loop reporter measured on UGUGGUGUAUCCUUUAGGAGUGAUGUUUUUCGAGGACCGGUACGGCCGCCACUCGAGUGAUGAGAGCGUCGUUGUGGUGGUUUGU [#16 K4 Tryptophan A Exclusion] = 697 nM

What the record says about ACAGUUGCUAGUGAUACCAGACUAGCACUACGUAAUAUGUCAAGUGAUGUUUGACAACUAGUCCCUUGGCAGCGCGAUACGACUG [#11 K4 Theophylline B Same State] : apparent KD of K4 kissing-loop reporter is 269 nM

Item: AUUAAUUUCAGAGGAUAUCGUAUUUAUAUUUUAUCUUUCCAUAUUUGCAGUGAUGUUGCAUUAAUUCGAGAAGGCUGAUUUAUAA [JR_ExcFMNB_Sub008] | apparent KD of K4 kissing-loop reporter: 75.1 nM

// apparent KD of K4 kissing-loop reporter lookup, sequence = UGCGCUGUGUACUGAAAUGUUCUGCGGGAUACCAGAGUCUUUUUAUUCCCUUGGCAGCUUGAGUGAUGUUUGAUGCCGUUCUUGU [tffeymullin] , result: 521 nM

Recorded result, AGGUUUUACGGAGGAUAUGCACUGAGGAGGAGAAUAUAGUGAUGUUAUAUAAGAGGAAGGAGAAGAGUAGAAGGCCGUGAGGUUU [SSFMNB.M] , apparent KD of K4 kissing-loop reporter: 204 nM

For record AACUGUCAAGGACAACAUUACUGAGGUGAUACCAGCAUCGAAAGAUGCCCUUGGCAGCACCAACUUGCAGUGAUGUUGCAAGUAA [Design6] the listed apparent KD of K4 kissing-loop reporter is 279 nM

# apparent KD of K4 kissing-loop reporter of AGCAUUAUCAGAAGGAGCGUGUAUAAAUCAAUAGUAUUGUAUUCGAGUGAUGUUCGUAAUACACAGGUAGGUCGCUGAUAUUGCA [JR_ExcArginiB_Sub002] = 175 nM
